B1: FBXO3 (parent)
chain: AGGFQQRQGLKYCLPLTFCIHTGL

- Variants of: B1
- assayInfo: protein stability index of a GFP-peptide fusion (GPS, HEK-293T) (PSI 1-6); higher = more stable;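 further: lentivirally expressed fusions sorted by FACS into six bins by GFP to DsRed ratio, PSI derived from sequencing read proportions per bin multiplied by bin number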
- studyConditions: c terminus: a fixed tail appended
readoutLabel: protein stability index

mutationNotation	readoutLabel	valueObserved
Q6A	protein stability index	2.26
G3M	protein stability index	2.47
L10N	protein stability index	2.56
G23P	protein stability index	3.02
Y12R	protein stability index	3.39
L14S	protein stability index	2.67
K11C	protein stability index	2.12
R7H	protein stability index	2.74
L16F	protein stability index	3.56
L14M	protein stability index	2.42
T22C	protein stability index	2.09
L10C	protein stability index	2.26
L10K	protein stability index	3.64
Y12V	protein stability index	2.36
Y12C	protein stability index	2.32
H21K	protein stability index	2.03
T22E	protein stability index	2.24
K11T	protein stability index	2.45
T17Y	protein stability index	2.69
C19Q	protein stability index	1.74
L24C	protein stability index	2.15
C13L	protein stability index	1.69

Measured values drawn from the supplement of paper PMC10567573 for this set.
